The reported numbers originate from paper PMC9482650.

Target: CASK, O14936
Sequence (O14936 487-570): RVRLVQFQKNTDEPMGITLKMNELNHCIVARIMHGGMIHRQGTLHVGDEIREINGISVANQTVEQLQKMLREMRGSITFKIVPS
Test: holdup assay
Parameters: key: below the threshold = too weak to quantify, mostly under pKd 3.1 to 4
Conditions: plain residues with an end cap or a label only (N-terminal biotin on a linker: ado-ado)
recorded_endpoint: pKd
Enter the number alone.

Query: So what does the record say about pKd for LRSPRTPSEV [OR10G3, Q8NGC4] ?
Response: 3.61

Query: So what does the record say about pKd for KSGKQTMLVV [TRIM29, Q14134] ?
Response: 3.48
